- experimentSummary: in vitro
- assayConditions: human, plasma, pH 7.4
measuredParameter: half-life at 2 µM

>>> value("C#C[C@]1(COC(=O)OCC23CC4CC(CC(C4)C2)C3)O[C@@H](n2cnc3c(N)nc(F)nc32)C[C@@H]1OC(=O)OCC")
"50 to 200 min"
>>> value("C#C[C@]1(COC(=O)OCCCC23CC4CC(CC(C4)C2)C3)O[C@@H](n2cnc3c(N)nc(F)nc32)C[C@@H]1OC(=O)OCC")
"< 50 min"
>>> value("C#C[C@]1(COC(=O)OCCC23CC4CC(CC(C4)C2)C3)O[C@@H](n2cnc3c(N)nc(F)nc32)C[C@@H]1OC(=O)OCC")
"< 50 min"
>>> value("C#C[C@@]12COC(=O)OCCCOC(=O)O[C@H]1C[C@H](n1cnc3c(N)nc(F)nc31)O2")
"50 to 200 min"
>>> value("C#C[C@]1(COC(=O)OCCCCC23CC4CC(CC(C4)C2)C3)O[C@@H](n2cnc3c(N)nc(F)nc32)C[C@@H]1OC(=O)OCC")
"50 to 200 min"
>>> value("C#C[C@]1(COC(=O)OC23CC4CC(CC(C4)C2)C3)O[C@@H](n2cnc3c(N)nc(F)nc32)C[C@@H]1OC(=O)OCC")
"> 200 min"
